Readings of normalized thallium flux for the listed molecules
# Procedure Text: PubChem AID 1714;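 further: raw slope of fluorescence over initial fluorescence between 10 and 20 s after thallium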
# Measurement Conditions: HEK293-KCC2 + bumetanide/ouabain, thallium flux FluoZin2; at 10 µM; stronger effect = higher value
The list shows a part of the results. Inconclusive results are not listed.

{"Molecule": "O=C(Nc1ccc2oc(-c3ccccc3F)nc2c1)c1ccco1", "normalized thallium flux": 0.00477}
{"Molecule": "COc1ccc(-n2c(=S)[nH]c3sc4c(c3c2=O)CCc2ccccc2-4)cc1", "normalized thallium flux": 0.0262}
{"Molecule": "COc1cc(NC(=O)c2ccccc2NS(=O)(=O)c2ccc(Cl)s2)cc(OC)c1", "normalized thallium flux": 0.00732}
{"Molecule": "Cc1nn(-c2ccccc2)c2sc(C(=O)N(Cc3ccco3)C(C)C(=O)NC(C)(C)C)cc12 (stereo not given)", "normalized thallium flux": 0.00436}
{"Molecule": "Cc1cc(C(=O)NNC(=S)Nc2ccccc2C)cs1", "normalized thallium flux": 0.0117}

* * *

z-score values by entry
# Procedure Text: DUSP6 inhibitors restoring Erk phosphorylation by chemical complementation, primary imaging in DUSP6-transfected HeLa (AID 609)
# Measurement Conditions: HeLa MKP-3 transfected, phospho-Erk imaging KS statistic; measured here: cell density z-score; at 10 µM; cells stimulated with TPA for 15 min
Property: z-score

{"Compound": "CC1(C)CC(=O)C(C=NCC(O)c2ccccc2)=C(O)C1 (centres undefined)", "Assay Result": -1.15}
{"Compound": "CSc1sc(C(=O)O)c2c1C(=O)CCC2", "Assay Result": -0.487}
{"Compound": "OC(CCN1CCCC1)(c1ccccc1)C1CCCCC1 (centres undefined)", "Assay Result": 1.31}
{"Compound": "Cc1cccc(OCC(=O)N2CCC(N3CCCCCC3)CC2)c1", "Assay Result": 1.59}
{"Compound": "Nc1ccc2cn[nH]c2c1", "Assay Result": -0.59}
{"Compound": "COC(=O)c1[nH]c2cc(OC)ccc2c1NC(=O)CCN1CCCC(C)(C)C1", "Assay Result": -0.606}
{"Compound": "COc1ccccc1-c1cc(-c2cc(Cl)ccc2O)n[nH]1", "Assay Result": 1.7}
{"Compound": "Fc1ccccc1-c1nc(N2CCCCC2)c2ccccc2n1", "Assay Result": 1.66}
{"Compound": "CCCCN(CCCC)c1nc2ccccc2nc1C(C#N)C(=O)NCCCOC (centres undefined)", "Assay Result": -0.742}
{"Compound": "C=CCn1c(=S)[nH]c2nc3c(cc2c1=O)CCCC3", "Assay Result": -0.436}
{"Compound": "Cc1ccsc1C1NC(=O)c2c(sc3c2CCCC3)N1 (centres undefined)", "Assay Result": -1.62}
{"Compound": "O=S(=O)(NCc1cccnc1)c1cccc2nsnc12", "Assay Result": -0.856}
{"Compound": "CCN(CC)CCOC(=O)C(c1ccccc1)c1ccccc1", "Assay Result": -0.21}
{"Compound": "CC1Cc2ccccc2N1NC(=O)c1ccc(Cl)c(S(N)(=O)=O)c1 (centres undefined)", "Assay Result": 0.724}
{"Compound": "CC1CN(C2CCN(C(=O)c3ccccc3)CC2)CC(C)O1 (centres undefined)", "Assay Result": 1.48}
{"Compound": "O=c1[nH]c(CN2CCCCC2)nc2c1C1(CCCCC1)Cc1ccccc1-2", "Assay Result": 0.315}
{"Compound": "CC(CN1c2ccccc2Sc2ccccc21)N(C)C (centres undefined)", "Assay Result": 2}
{"Compound": "CCCCN1C[C@H](O)[C@@H](O)[C@H](O)[C@H]1CO", "Assay Result": 0.947}
{"Compound": "CN(C)CCOC(=O)C(c1ccccc1)C1(O)CCCC1 (centres undefined)", "Assay Result": 0.315}
{"Compound": "CN(CC(O)COc1ccc(OCC(O)CN(C)C2CCCCC2)cc1)C1CCCCC1 (centres undefined)", "Assay Result": -0.395}
{"Compound": "CCOC(=O)CC1=C(C(=O)OCC)C(c2cc(OC)c(OC)cc2OC)C(C#N)=C(N)O1 (centres undefined)", "Assay Result": 1.93}
{"Compound": "Clc1cccc(-c2nn3c(COc4ccccc4)nnc3s2)c1", "Assay Result": 0.34}
{"Compound": "COc1ccccc1N(O)C1CC(=O)N(c2ccc(F)cc2)C1=O (centres undefined)", "Assay Result": -1.81}
{"Compound": "Cn1c(=O)c2c(nc(NCc3ccc4c(c3)OCO4)n2Cc2ccc(F)cc2)n(C)c1=O", "Assay Result": -0.468}

Recorded values, source PubChem BioAssay.
